target: Cytochrome P450 2C9 (Homo sapiens)
Sequence (P11712 whole entry): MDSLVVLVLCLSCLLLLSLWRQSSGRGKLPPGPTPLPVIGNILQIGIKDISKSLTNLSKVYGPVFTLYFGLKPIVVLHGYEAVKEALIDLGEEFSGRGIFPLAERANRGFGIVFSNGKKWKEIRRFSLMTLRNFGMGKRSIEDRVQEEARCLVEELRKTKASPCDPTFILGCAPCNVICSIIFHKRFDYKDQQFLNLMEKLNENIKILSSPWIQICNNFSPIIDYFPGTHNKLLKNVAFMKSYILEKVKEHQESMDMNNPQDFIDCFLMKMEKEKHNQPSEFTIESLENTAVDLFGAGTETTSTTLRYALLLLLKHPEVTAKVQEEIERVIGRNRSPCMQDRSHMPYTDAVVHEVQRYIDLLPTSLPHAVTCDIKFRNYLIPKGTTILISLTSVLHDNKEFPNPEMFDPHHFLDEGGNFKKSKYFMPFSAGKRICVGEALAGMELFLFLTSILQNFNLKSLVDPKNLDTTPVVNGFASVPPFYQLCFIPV
QUANTITY NAME: IC50

(Q) Query IC50 on Cytochrome P450 2C9 (Homo sapiens) for O=C1CC[C@H](N2Cc3c(ccc4c3OCC43CCN(C[C@@H]4CCC5(CCN(c6ccc([C@@H]7c8ccc(O)cc8CC[C@@H]7c7ccccc7)cc6)CC5)OC4)CC3)C2=O)C(=O)N1
(A) > 10 µM

====

assay: Drug concentration in female Sprague-Dawley rat plasma at 3 mg/kg, po measured at 6 hrs by LC-MS analysis; assay type: ADME, organism-based
QUANTITY NAME: concentration at 6 h (ng/mL)
Report the value in ng/mL with no unit label.

chemical_smiles=O=C1CC[C@H](N2Cc3c(ccc4c3OCC43CCN(C(=O)CN4CCC5(CC4)CN(c4ccc([C@@H]6c7ccc(O)cc7CC[C@@H]6c6ccccc6)cc4)C5)CC3)C2=O)C(=O)N1 quantity_name="concentration at 6 h" numeric_result=9

Next item in the queue.
(Q) Consider the compound shown here: O=C1CC[C@H](N2Cc3c(ccc4c3OCC43CCN(CC(=O)N4CCC5(CC4)CN(c4ccc([C@@H]6c7ccc(O)cc7CC[C@@H]6c6ccccc6)cc4)C5)CC3)C2=O)C(=O)N1 What is its recorded concentration at 6 h?
(A) 17

Provenance of the data: ChEMBL document CHEMBL6083286
